system: human PKK mRNA; test: Antisense inhibition of human PKK mRNA in HepaRG cells, 3,000 nM (Example 1); format: cell-based; details: Table 3; HepaRG cells, electroporation with 3,000 nM antisense oligonucleotide, approx. 24 hours; PKK mRNA by RT-PCR (RTS3454), relative to untreated control cells
Strand notation (5' to 3'): a small letter for the sugar, then the base; units joined by * are phosphorothioate-linked, units joined directly phosphodiester-linked; [ ] holds rarer units or linkages, { } end groups; capitals alone tell only the bases. e = 2'-O-(2-methoxyethyl) (MOE); [5mC] = 5-methylcytosine; d = 2'-deoxy (DNA)
parameter: % inhibition (%)

# substance, result-number
measured = [
    ("531084 (eA*eT*eA*eG*eG*dG*dA*d[5mC]*dA*d[5mC]*dA*dA*d[5mC]*d[5mC]*dA*eA*eG*eG*eA*eA; antisense) [compound 531084]", 25),
    ("531120 (antisense eA*eA*eA*eT*eA*dA*dA*dA*dG*d[5mC]*dA*d[5mC]*dT*d[5mC]*dA*eG*eA*e[5mC]*eT*eG) [compound 531120]", 0),
    ("531158 (antisense eA*e[5mC]*e[5mC]*eT*eT*dA*d[5mC]*dA*dA*dG*d[5mC]*dA*dT*d[5mC]*dT*eT*eT*eT*e[5mC]*e[5mC]) [compound 531158]", 41),
    ("531159 (antisense eA*eT*eT*eT*eG*dT*dT*dA*dA*dA*dA*dG*dT*dT*dG*e[5mC]*eT*eT*eA*eT) [compound 531159]", 0),
    ("531140 (antisense eT*e[5mC]*eT*eT*e[5mC]*d[5mC]*dA*dG*dG*d[5mC]*d[5mC]*dA*dA*d[5mC]*d[5mC]*eA*e[5mC]*e[5mC]*eT*eT) [compound 531140]", 22),
]

----------
tested on: human PKK mRNA; experiment: Dose-dependent antisense inhibition of human PKK in HepaRG cells, 0.19-5.00 uM (Example 5); assay type: cell-based; conditions: HepaRG cells, 1.67 μM antisense oligonucleotide
Strand notation (5' to 3'): a small letter for the sugar, then the base; units joined by * are phosphorothioate-linked, units joined directly phosphodiester-linked; [ ] holds rarer units or linkages, { } end groups; capitals alone tell only the bases. e = 2'-O-(2-methoxyethyl) (MOE); [5mC] = 5-methylcytosine; d = 2'-deoxy (DNA)
parameter: percent inhibition of PKK mRNA, 1.67 μM

# substance, result
data = [
    ("547632 (antisense eT*e[5mC]*eA*e[5mC]*eT*dG*dT*d[5mC]*d[5mC]*dT*dA*dT*dA*dT*d[5mC]*eA*e[5mC]*eT*e[5mC]*eT) [compound 547632]", "63%"),
    ("546889 (eG*eT*e[5mC]*e[5mC]*eT*dA*dT*dG*dT*d[5mC]*dA*d[5mC]*dT*dG*dT*eA*e[5mC]*e[5mC]*eT*eA; antisense) [compound 546889]", "73%"),
    ("546986 (e[5mC]*eA*eG*eG*eA*dT*dA*dG*dA*dA*d[5mC]*dT*dG*dA*dT*eG*eG*eT*e[5mC]*e[5mC]; antisense) [compound 546986]", "69%"),
]

----------
system: human PKK mRNA; assay: Dose-dependent antisense inhibition of human PKK in HepaRG cells, 0.12-10.00 uM (Example 4); type: cell-based; settings: Table 33, 10.00 μM, electroporation, ~16 h
Strand notation (5' to 3'): a small letter for the sugar, then the base; units joined by * are phosphorothioate-linked, units joined directly phosphodiester-linked; [ ] holds rarer units or linkages, { } end groups; capitals alone tell only the bases. e = 2'-O-(2-methoxyethyl) (MOE); [5mC] = 5-methylcytosine; d = 2'-deoxy (DNA)

# substance, percent inhibition of PKK at 10.00 μM
data = [
    ("531172 (antisense eT*eT*e[5mC]*eA*eA*dG*d[5mC]*d[5mC]*dT*dG*dG*dG*d[5mC]*dA*dG*e[5mC]*eA*e[5mC]*eA*eG) [compound 531172]", "60%"),
    ("531026 (antisense eA*eT*e[5mC]*eA*eT*dG*dA*dT*dT*d[5mC]*d[5mC]*d[5mC]*dT*dT*d[5mC]*eT*eG*eA*eG*eA) [compound 531026]", "85%"),
    ("531232 (e[5mC]*eT*eG*eT*eA*d[5mC]*dT*dA*dG*dT*dT*dT*d[5mC]*d[5mC]*dT*eA*eT*eA*eA*e[5mC]; antisense) [compound 531232]", "76%"),
    ("531231 (eT*eA*eT*e[5mC]*eA*d[5mC]*dT*dG*dT*dA*d[5mC]*dT*dA*dG*dT*eT*eT*e[5mC]*e[5mC]*eT) [compound 531231]", "84%"),
    ("531071 (e[5mC]*eT*eG*e[5mC]*eT*d[5mC]*dT*dG*dT*dG*dT*dT*dT*dT*d[5mC]*eT*e[5mC]*eT*eA*eA; antisense) [compound 531071]", "83%"),
    ("531123 (antisense eT*e[5mC]*e[5mC]*e[5mC]*eA*dG*d[5mC]*dT*d[5mC]*d[5mC]*dA*dG*dT*d[5mC]*dA*e[5mC]*e[5mC]*eA*e[5mC]*e[5mC]) [compound 531123]", "64%"),
]
